The measured values listed here are drawn from patent US20110118447A1.

# study_system: binding partner (antigen) of C5A (XPA23)
# protocol: Biacore, K-off, fold vs original
Items are presented alongside their recorded fold difference in affinity vs original.
Record the value in fold, omitting the unit from your answer.

Check out these entries, answers already filled in.
[[record]]
binder = "C5A (XPA23) VH V99A (antibody, V domains shown) VH: EVQLLESGGGLVQPGGSLRLSCAASGFTFSKYFMFWVRQAPGKGLEWVSVISPSGGMTRYADSVKGRFTISRDNSKNTLYLQMNSLRAEDTAVYYCARAGYGGNSDYWGQGTLVTVSS VL: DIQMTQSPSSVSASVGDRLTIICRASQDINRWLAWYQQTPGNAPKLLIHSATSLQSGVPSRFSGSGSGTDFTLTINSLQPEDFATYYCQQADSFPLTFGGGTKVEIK"
reported = 0.03

[[record]]
binder = "C5A (XPA23) VH S54L (antibody, V domains shown) VH: EVQLLESGGGLVQPGGSLRLSCAASGFTFSKYFMFWVRQAPGKGLEWVSVISPLGGMTRYADSVKGRFTISRDNSKNTLYLQMNSLRAEDTAVYYCARVGYGGNSDYWGQGTLVTVSS VL: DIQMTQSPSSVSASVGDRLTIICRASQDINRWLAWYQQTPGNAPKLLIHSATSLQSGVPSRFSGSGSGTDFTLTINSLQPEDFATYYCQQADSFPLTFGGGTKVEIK"
reported = 0.91

[[record]]
binder = "C5A (XPA23) VH P53F (antibody, V domains shown) VH: EVQLLESGGGLVQPGGSLRLSCAASGFTFSKYFMFWVRQAPGKGLEWVSVISFSGGMTRYADSVKGRFTISRDNSKNTLYLQMNSLRAEDTAVYYCARVGYGGNSDYWGQGTLVTVSS VL: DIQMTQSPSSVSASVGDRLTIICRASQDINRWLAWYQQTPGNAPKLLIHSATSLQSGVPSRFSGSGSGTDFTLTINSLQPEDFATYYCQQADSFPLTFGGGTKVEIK"
reported = 0.05


q: Identify fold difference in affinity vs original associated with the binder C5A (XPA23) VH I51F (antibody, V domains shown) VH: EVQLLESGGGLVQPGGSLRLSCAASGFTFSKYFMFWVRQAPGKGLEWVSVFSPSGGMTRYADSVKGRFTISRDNSKNTLYLQMNSLRAEDTAVYYCARVGYGGNSDYWGQGTLVTVSS VL: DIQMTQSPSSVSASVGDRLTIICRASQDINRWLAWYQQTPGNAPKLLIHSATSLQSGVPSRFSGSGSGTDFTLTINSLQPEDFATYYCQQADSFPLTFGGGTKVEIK
a: 0.9

q: Identify fold difference in affinity vs original associated with the binder C5A (XPA23) VH I51V (antibody, V domains shown) VH: EVQLLESGGGLVQPGGSLRLSCAASGFTFSKYFMFWVRQAPGKGLEWVSVVSPSGGMTRYADSVKGRFTISRDNSKNTLYLQMNSLRAEDTAVYYCARVGYGGNSDYWGQGTLVTVSS VL: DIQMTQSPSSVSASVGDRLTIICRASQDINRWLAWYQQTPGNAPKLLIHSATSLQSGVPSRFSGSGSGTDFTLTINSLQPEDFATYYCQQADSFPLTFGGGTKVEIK
a: 0.99
